Molecular target: T1, human calcitonin receptor (hCTR) (human, UniProt P30988 25-474)
T1 sequence (looked up): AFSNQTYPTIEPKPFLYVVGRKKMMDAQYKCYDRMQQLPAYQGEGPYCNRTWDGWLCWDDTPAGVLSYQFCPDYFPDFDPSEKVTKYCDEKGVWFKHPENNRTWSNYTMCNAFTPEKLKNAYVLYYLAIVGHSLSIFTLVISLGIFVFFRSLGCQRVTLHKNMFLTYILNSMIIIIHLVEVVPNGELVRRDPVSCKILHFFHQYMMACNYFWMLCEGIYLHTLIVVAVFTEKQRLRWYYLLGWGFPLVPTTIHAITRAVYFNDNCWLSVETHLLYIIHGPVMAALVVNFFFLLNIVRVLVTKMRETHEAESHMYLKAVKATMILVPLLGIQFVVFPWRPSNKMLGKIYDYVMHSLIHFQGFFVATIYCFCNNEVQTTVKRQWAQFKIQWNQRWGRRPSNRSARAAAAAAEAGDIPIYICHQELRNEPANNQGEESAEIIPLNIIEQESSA
Test: cell-based or functional assay
Numbered stars: 1 amine (or outer) side, 2 acyl side, 3 side chain; on linkers, the order of the positions; unused ones are H or OH. Bridge positions count the residues as written; N and C are the ends. Square brackets hold non-standard residues; d marks the D form. Side chains are listed from the residue outwards. Ends that are not written are not given here. * marks the point of attachment. C20 diacid = O=C(O)CCCCCCCCCCCCCCCCCCC(=O)*; γGlu = O=C(O)[C@H](CCC(=O)[*:2])N[*:1]; αMeF = C[C@](N)(Cc1ccccc1)C(=O)O; NMeD = CN[C@@H](CC(=O)O)C(=O)O; αMeL = CC(C)C[C@](C)(N)C(=O)O; Orn = NCCC[C@H](N)C(=O)O; CH2 = C([*:1])[*:2]
So I've got a bunch of binders here, and I need their hCTR cAMP EC50 values.
Could you kindly put the unit after your number?

Which hCTR cAMP EC50 reading was recorded for the binder [γGlu]CNTATCATG[Orn]LAE[αMeF]LVRSSN[NMeD]FGPKLPPTEVGSNTY-NH2 (bridge 2-7 via CH2) [Compound III] ?
16.3 nM

Which hCTR cAMP EC50 reading was recorded for the binder K([γGlu-γGlu-C20 diacid])CETATCATG[Orn][αMeL]AEFLVRSSHNFGPILPPTEVGSNTY-NH2 (bridge 2-7 via CH2, Acylated form of Compound VII) [Compound VIII] ?
9.69 nM

Which hCTR cAMP EC50 reading was recorded for the binder [γGlu]CGTATCATG[Orn]LAEFLVRSSNNFGPK([γGlu-γGlu-C20 diacid])LPPTEVGSNTY-NH2 (bridge 2-7 via CH2) [Compound XIII] ?
9.49 nM

# credit: patent US20220288168A1
